assay: Stability of DA-7010 in rat plasma under various storage conditions; assay type: in vitro ADME; conditions: prepared plasma samples in LC vials, post-preparative (prepared samples 4 °C 24 h), nominal 8000 ng/mL, n = 3, mean ± SD

MOL	recovery at 24 h, 8000 ng/mL
C[C@@H]1COB2O[C@H](CN)c3cccc(c32)O1	111%

---

assay: Stability of DA-7010 in rat plasma under various storage conditions; format: in vitro ADME; settings: 3 freeze/thaw (–20 °C/room temperature) cycles, nominal 8000 ng/mL, n = 3, mean ± SD
READOUT KIND: recovery at 8000 ng/mL (%)

COMPOUND	READOUT KIND	NUMERIC VALUE
C[C@@H]1COB2O[C@H](CN)c3cccc(c32)O1 [DA-7010]	recovery at 8000 ng/mL	100
